The reported measurements were obtained from paper PMC12265377.

system: NCI-N87 cells; assay: MTT cytotoxicity assay; format: cell-based, human; details: 72h, read-out: Cytotoxic activity IC50±SEM
reported_metric: pIC50
To interpret pIC50, take it as minus log10 of a concentration measured in moles per litre.

COc1ccc(C(=O)c2c(C)n(CCN3CCOCC3)c3cc(I)ccc23)cc1 [AM630, reference compound]
4.81

Data request, read-out pIC50, for `CCCCCNc1ccccc1C(=O)NC12CC3CC(CC(C3)C1)C2`
4.53

###

molecular target: FAAH Human recombinant (Homo sapiens, UniProt O00519); assay: FAAH inhibition assay; conditions: ± SEM; substrate AMC-AA 1 µM; read-out: FAAHi IC50
Sequence (O00519 whole entry): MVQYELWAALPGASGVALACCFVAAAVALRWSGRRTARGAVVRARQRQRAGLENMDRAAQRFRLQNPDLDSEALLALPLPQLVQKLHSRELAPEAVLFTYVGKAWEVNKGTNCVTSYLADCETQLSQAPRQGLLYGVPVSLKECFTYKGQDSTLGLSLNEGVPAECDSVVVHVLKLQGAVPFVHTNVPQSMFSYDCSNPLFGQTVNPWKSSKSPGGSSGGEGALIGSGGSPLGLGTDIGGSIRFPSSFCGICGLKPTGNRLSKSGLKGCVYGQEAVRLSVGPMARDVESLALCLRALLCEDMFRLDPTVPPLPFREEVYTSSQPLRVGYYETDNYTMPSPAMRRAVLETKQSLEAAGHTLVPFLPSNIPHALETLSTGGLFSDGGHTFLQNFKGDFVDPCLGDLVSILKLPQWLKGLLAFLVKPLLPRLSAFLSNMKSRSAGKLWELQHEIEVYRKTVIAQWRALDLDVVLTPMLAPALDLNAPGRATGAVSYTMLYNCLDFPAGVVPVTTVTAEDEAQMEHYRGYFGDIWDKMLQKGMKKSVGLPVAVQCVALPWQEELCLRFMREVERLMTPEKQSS
reported_metric: pIC50
Answer as the number alone; pIC50 is minus log10 of concentration in mol/L.

State its pIC50 on FAAH Human recombinant (Homo sapiens, UniProt O00519): COc1ccc(C(=O)c2c(C)n(CCN3CCOCC3)c3cc(I)ccc23)cc1 [AM630, reference compound]
4.70

###

target: P-gp (Homo sapiens); experiment: P-gp interaction assay (Calcein-AM, MDCK-MDR1 cells)
Sequence (P08183 whole entry): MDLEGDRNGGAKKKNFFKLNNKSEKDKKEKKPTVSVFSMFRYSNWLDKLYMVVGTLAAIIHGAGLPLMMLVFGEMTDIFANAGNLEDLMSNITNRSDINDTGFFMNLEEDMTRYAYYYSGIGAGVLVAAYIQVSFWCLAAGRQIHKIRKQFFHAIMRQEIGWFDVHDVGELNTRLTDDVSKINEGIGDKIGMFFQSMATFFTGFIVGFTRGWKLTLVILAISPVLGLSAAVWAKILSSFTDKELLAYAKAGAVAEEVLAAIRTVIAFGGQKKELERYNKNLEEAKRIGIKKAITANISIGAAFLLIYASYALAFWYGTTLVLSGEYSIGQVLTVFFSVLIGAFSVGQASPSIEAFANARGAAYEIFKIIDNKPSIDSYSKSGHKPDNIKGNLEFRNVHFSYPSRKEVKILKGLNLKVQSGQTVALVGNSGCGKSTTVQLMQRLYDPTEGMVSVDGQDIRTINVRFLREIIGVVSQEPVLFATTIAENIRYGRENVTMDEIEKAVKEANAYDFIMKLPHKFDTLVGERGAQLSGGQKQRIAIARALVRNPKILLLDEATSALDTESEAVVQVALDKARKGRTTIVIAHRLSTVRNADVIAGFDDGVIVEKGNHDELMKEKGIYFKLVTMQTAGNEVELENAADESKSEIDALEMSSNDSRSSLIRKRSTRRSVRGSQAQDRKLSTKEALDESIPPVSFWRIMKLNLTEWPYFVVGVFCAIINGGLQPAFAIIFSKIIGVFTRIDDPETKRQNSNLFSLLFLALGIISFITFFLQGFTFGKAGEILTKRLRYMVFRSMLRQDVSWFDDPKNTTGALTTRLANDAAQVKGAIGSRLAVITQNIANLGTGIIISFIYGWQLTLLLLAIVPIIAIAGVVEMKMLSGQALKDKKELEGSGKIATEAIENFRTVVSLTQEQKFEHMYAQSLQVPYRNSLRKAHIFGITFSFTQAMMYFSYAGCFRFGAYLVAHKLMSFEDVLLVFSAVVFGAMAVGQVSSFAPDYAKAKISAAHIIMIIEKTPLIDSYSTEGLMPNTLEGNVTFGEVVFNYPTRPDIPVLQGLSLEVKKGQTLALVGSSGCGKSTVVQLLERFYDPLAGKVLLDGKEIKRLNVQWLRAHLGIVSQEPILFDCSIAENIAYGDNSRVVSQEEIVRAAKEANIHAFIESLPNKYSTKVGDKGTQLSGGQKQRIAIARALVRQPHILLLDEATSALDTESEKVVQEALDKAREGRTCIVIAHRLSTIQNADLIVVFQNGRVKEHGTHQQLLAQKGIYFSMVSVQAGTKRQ
reported_metric: EC50 (µM)
Output spec: scalar in µM, unitless text.

Hi! What's the reported EC50 for `O=C(NC12CC3CC(CC(C3)C1)C2)c1ccccc1OCc1ccccc1` on P-gp (Homo sapiens)?
7.75

###

tested on: HGC27-R cells; experiment: MTT cytotoxicity assay; type: cell-based, human; conditions: Homo sapiens, 72 h, read-out: Cytotoxic activity IC50±SEM
reported_metric: pIC50
The value called pIC50 is obtained by taking minus log10 of the concentration in mol/L.

Dear colleague, I am looking for the recorded pIC50 of the following compound: `O=C(NC12CC3CC(CC(C3)C1)C2)c1ccccc1OCc1ccccc1`
4.67

###

tested on: AGS cells; test: MTT cytotoxicity assay; assay type: cell-based, human; conditions: 48h, read-out: Cytotoxic activity IC50±SEM
reported_metric: IC50 (µM)
// return numeric value only (unit: µM, not printed)

COc1ccc(C(=O)c2c(C)n(CCN3CCOCC3)c3cc(I)ccc23)cc1 [AM630, reference compound]
13.4

Please tell me: IC50 of CCCCCNc1ccccc1C(=O)NC12CC3CC(CC(C3)C1)C2 [ASF151] , system AGS cells?
33

###

tested on: AGS cells; assay: MTT cytotoxicity assay; assay type: cell-based, human; conditions: Homo sapiens, 72h, read-out: Cytotoxic activity IC50±SEM
reported_metric: IC50

Would you kindly share the measured IC50 for `O=C(NC12CC3CC(CC(C3)C1)C2)c1ccccc1OCc1ccccc1` ?
9.8 µM

###

test system: AGS cells; experiment: MTT cytotoxicity assay; format: cell-based, human; conditions: 72h, read-out: Cytotoxic activity IC50±SEM
Below is a list of entries, each paired with its recorded IC50 value.
Value expressed in µM; do not type the unit.

CCCCCNc1ccccc1C(=O)NC12CC3CC(CC(C3)C1)C2
42.3

Entry COc1ccc(C(=O)c2c(C)n(CCN3CCOCC3)c3cc(I)ccc23)cc1 [AM630, reference compound] has what IC50?
7.5

###

Test system: HGC27-R cells
Assay: MTT cytotoxicity assay
Assay type: cell-based, human
Details: 72h, read-out: Cytotoxic activity IC50±SEM
Protocol: Cell viability was checked with the MTT assay at 48 h and 72 h [24]in HGC27-S/R and AGS gastric cancer cell lines. On day 1, 5000 cells/well were seeded into 96-well plates in a volume of 100 µL. […] The formazan crystals were solubilized using 100 µL of DMSO and the absorbance values at 570 and 630 nm were determined on the microplate reader Victor 3 from PerkinElmer Life Sciences. Results are expressed as mean ± SD of 3 independent experiments in triplicate.
reported_metric: IC50 (µM)
Supply the numeric figure in µM, leaving out any unit text.

CCCCCNc1ccccc1C(=O)NC12CC3CC(CC(C3)C1)C2 [ASF151]
28

Fill in the recorded IC50 for this compound, with HGC27-R cells as test system: COc1ccc(C(=O)c2c(C)n(CCN3CCOCC3)c3cc(I)ccc23)cc1 [AM630, reference compound]
19.1

###

system: HGC27-S cells; experiment: MTT cytotoxicity assay; assay type: cell-based, human; settings: 48h, read-out: Cytotoxic activity IC50±SEM
# IC50 per record follows
Report as a plain number; the unit µM is understood.

COc1ccc(C(=O)c2c(C)n(CCN3CCOCC3)c3cc(I)ccc23)cc1 [AM630, reference compound]
20.4

Fill in: IC50 of `CCCCCNc1ccccc1C(=O)NC12CC3CC(CC(C3)C1)C2` is ___
49

###

tested on: HGC27-S cells; test: MTT cytotoxicity assay; type: cell-based, human; conditions: 72h, read-out: Cytotoxic activity IC50±SEM
Each item that follows carries a reported IC50.
Provide the reading as a plain figure in µM.

CCCCCNc1ccccc1C(=O)NC12CC3CC(CC(C3)C1)C2 [ASF151]
30.1

// moving on: another record for IC50
Write down the reported IC50 of COc1ccc(C(=O)c2c(C)n(CCN3CCOCC3)c3cc(I)ccc23)cc1 [AM630, reference compound] , test system: HGC27-S cells.
13.7
